System: HEK-293T
Experiment: Incucyte cell viability with HEK293T; further: unitless GR value; below 1 slowed growth and below 0 cell loss
Type: toxicity, cell-based
Settings: human, 24 h, 10 µM, compound concentration 10 uM, replicate number 1
Output schema: class label derived from Growth Rate. Mapping: class 1 = under 0.4, class 2 = from 0.4 up to 0.9, class 3 = 0.9 and over

CC(C)Oc1ccc(Cc2ccc(NC3=NCCN3)cc2)cc1; class 1
Cc1noc(C)c1-c1cnc2c(-c3ccc(C(=O)O)cc3)cn([C@@H](C)c3ccccn3)c2c1; class 3
Cc1n[nH]c2ncc(C(=O)N3CCC[C@H]3c3ccc(Cl)cc3)cc12; class 3

Data request: Class for `CN1C(=O)Cc2ccc(-c3ccc(C[C@@H](C#N)NC(=O)[C@H]4N[C@@H]5CC[C@H]4C5)c(F)c3)cc21` ?
Data returned: class 2

Data request: Class for `Cn1nccc1-c1ccc(Sc2cccc(C3(C(N)=O)CCOCC3)c2)cc1` ?
Data returned: class 1

Data request: Class for `C[C@@H]1CC(=O)N(C2CC2)N=C1c1ccc(NC(=O)N2Cc3ccncc3C2)cc1` ?
Data returned: class 1

Data request: Class for `CC[C@]1(C)C[C@@H](OC(=O)CSc2nnc(N)[nH]2)[C@@]2(C)[C@H](C)CC[C@@]3(CCC(=O)[C@H]32)[C@@H](C)[C@@H]1O` ?
Data returned: class 2
